Data credit: the antibiotic and cytotoxicity screens of Wong et al. (2023)

# System: HepG2
# experimental_protocol: cytotoxicity call (relative viability < 0.9)
# test_context: 10 µM
Hit rate of the full screen: of about 39,000 compounds, about 3,300 (8.5%) were called active. The full list was thinned out, with actives kept by preference.
API: response.call in active, inactive

Worked examples follow.
- compound: "C[C@@H]1CCCCO[C@H](CN(C)C(=O)NC2CCCCC2)[C@H](C)CN([C@@H](C)CO)C(=O)c2cc(NC(=O)C3CCCCC3)ccc2O1"
  tgt: "HepG2"
  label: "inactive"
- compound: "CCOC(=O)C(=O)c1csc(NC=O)n1"
  tgt: "HepG2"
  label: "inactive"
- compound: "COc1cc(-c2coc3cc(O[C@@H]4O[C@H](CO)[C@@H](O)[C@H](O)[C@H]4O)c(OC)c(O)c3c2=O)cc(O)c1OC"
  tgt: "HepG2"
  label: "inactive"
- compound: "C[C@H]1CCCCO[C@H](CN(C)S(=O)(=O)c2ccccc2)[C@@H](C)CN([C@@H](C)CO)C(=O)c2cc(NC(=O)Nc3ccccc3)ccc2O1"
  tgt: "HepG2"
  label: "inactive"
- compound: "COc1ccc([Si](C)(C)[C@H]2[C@H](CC(=O)N3Cc4ccccc4C[C@H]3CO)O[C@@]3(C(=O)N(Cc4cccc(N5CCOC5=O)c4)c4ccccc43)[C@@H]2C)cc1"
  tgt: "HepG2"
  label: "inactive"
- compound: "CCN1CCCC1CNC(=O)c1cc(S(N)(=O)=O)ccc1OC (stereo unspecified)"
  tgt: "HepG2"
  label: "inactive"
- compound: "CN1CCC(=C2c3ccccc3Sc3ccccc32)CC1.O=C(O)C=CC(=O)O"
  tgt: "HepG2"
  label: "active"
- compound: "CN1CCN(C(=O)C[C@@H]2CC[C@H]3[C@@H](COC[C@H](O)CN3C(=O)C3CCOCC3)O2)CC1"
  tgt: "HepG2"
  label: "inactive"
- compound: "COc1ccc(C(=O)Nc2ccc(CN3C(=O)[C@@]4(O[C@@H](CC(=O)N5Cc6ccccc6C[C@H]5CO)[C@H]([Si](C)(C)c5ccc(OC)cc5)[C@H]4C)c4ccccc43)cc2)cc1"
  tgt: "HepG2"
  label: "inactive"
- compound: "C[C@@H]1CN([C@H](C)CO)C(=O)c2cc(NC(=O)NC3CCCCC3)ccc2O[C@@H](C)CCCCO[C@H]1CN(C)C(=O)Nc1ccc(F)cc1"
  tgt: "HepG2"
  label: "inactive"

q: Entry `O=C(O)c1ccc2nc(O)c(=O)[nH]c2c1` : call = ?
a: inactive

q: Entry `C[C@@H]1CCCCO[C@H](CN(C)S(=O)(=O)c2cccs2)[C@H](C)CN([C@H](C)CO)C(=O)c2cc(NC(=O)NC3CCCCC3)ccc2O1` : call = ?
a: inactive

q: Entry CC1(C(=O)O)CCC2(C)CCC3(C)C(=CC(=O)C4C5(C)CCC(O)C(C)(C)C5CCC43C)C2C1 (stereo unspecified) : call = ?
a: inactive

====

# System: HepG2
# experimental_protocol: cytotoxicity call (relative viability < 0.9)
# test_context: 10 µM
Out of some 39,000 compounds screened, about 3,300 (8.5%) were called active. Many of the other results were omitted from the sample, so actives are more common in it than they were.
API: response.call in 1 = active, 0 = inactive

Worked examples follow.
- compound: "O=C1C(O)=C(C2CCC(c3ccc(Cl)cc3)CC2)C(=O)c2ccccc21 (configuration not stated)"
  label: 1
- compound: "C[C@@H]1CCCCO[C@H](CN(C)C(=O)Nc2cccc3ccccc23)[C@H](C)CN([C@@H](C)CO)C(=O)c2cc(NC(=O)Nc3ccc4c(c3)OCO4)ccc2O1"
  label: 0
- compound: "O=C(CCCl)NCCc1ccccc1"
  label: 0
- compound: "COc1ccc(N(C(=O)CSc2ncccn2)[C@@H](C(=O)NCCc2ccccc2)c2cccs2)cc1Cl"
  label: 0
- compound: "C[C@@H]1CN([C@H](C)CO)C(=O)c2cc(NC(=O)c3ccncc3)ccc2O[C@@H]1CN(C)Cc1ccc(Oc2ccccc2)cc1"
  label: 0
- compound: "C[C@H](CO)N1C[C@H](C)[C@H](CN(C)Cc2ccc(Oc3ccccc3)cc2)Oc2ccc(NC(=O)c3ccncc3)cc2C1=O"
  label: 1

q: Entry `C[C@H](CO)N1C[C@H](C)[C@@H](CN(C)S(=O)(=O)c2cn(C)cn2)Oc2ncc(/C=C/c3ccccc3)cc2C1=O` : call = ?
a: 0

q: Entry `Cc1noc(C)c1NC(=O)N(C)C[C@H]1Oc2ccc(NC(=O)c3ccncc3)cc2C(=O)N([C@@H](C)CO)C[C@@H]1C` : call = ?
a: 0

q: Entry `C[C@H](CO)N1C[C@H](C)[C@@H](CN(C)Cc2ccc(Oc3ccccc3)cc2)Oc2ccc(NS(=O)(=O)c3ccc(Cl)cc3)cc2CC1=O` : call = ?
a: 0

q: Entry `O=C(O)CNS(=O)(=O)c1ccccc1F` : call = ?
a: 0

q: Entry `C[C@H]1CN([C@@H](C)CO)C(=O)c2cccc(NC(=O)c3ccncc3)c2O[C@H]1CN(C)S(=O)(=O)c1ccccc1` : call = ?
a: 0

q: Entry `C[C@H](CO)N1C[C@H](C)[C@@H](CN(C)Cc2ccc(-c3ccccc3)cc2)Oc2ccc(NC(=O)c3ccncc3)cc2C1=O` : call = ?
a: 0

q: Entry `Cc1noc(C)c1NC(=O)N(C)C[C@H]1Oc2ccc(NC(=O)c3ccncc3)cc2C(=O)N([C@@H](C)CO)C[C@H]1C` : call = ?
a: 0

q: Entry `O=C1O[C@H](c2ccccc2)[C@H](c2ccccc2)N2[C@H]1[C@@H](C(=O)N1CCCCCCC1)[C@]1(C(=O)Nc3ccc(C#CC4=CCCCC4)cc31)[C@H]2c1ccc(O)cc1` : call = ?
a: 0

q: Entry `C[C@H]1[C@H]([Si](C)(C)F)[C@@H](CCO)O[C@]12C(=O)N(Cc1cccc(N3C(=O)c4ccccc4Oc4ccccc43)c1)c1ccccc12` : call = ?
a: 0

q: Entry `COc1ccc(S(=O)(=O)N[C@H]2C=C[C@H](CC(=O)NCCc3ccncc3)O[C@@H]2CO)cc1` : call = ?
a: 0

q: Entry `Cc1ccc(Nc2nnc(-c3ccccc3)c3ccccc23)cc1` : call = ?
a: 1

====

# Test system: HepG2
# experimental_protocol: cytotoxicity call (relative viability < 0.9)
# test_context: 10 µM
The whole screen tested about 39,000 compounds, of which about 3,300 (8.5%) were called active. The full list was thinned out, with actives kept by preference.
API: response.call in true (1) = active, false (0) = inactive

Worked examples follow.
- compound: "CCOC(=O)c1cc2c(c(-c3cccc(C#CCN(C)C)c3)n1)[C@@H](CCO[Si](C)(C)C(C)(C)C)N([S@](=O)C(C)(C)C)C2"
  tgt: "HepG2"
  label: "true (1)"
- compound: "COc1ccc(CNC(=O)c2cc3c(c(-c4cccc(-c5cccc(C#N)c5)c4)n2)[C@@H](CCO)N([S@](=O)C(C)(C)C)C3)cc1"
  tgt: "HepG2"
  label: "false (0)"
- compound: "C[C@H](CO)N1C[C@H](C)[C@H](CN(C)Cc2ccccc2)OCCCC[C@H](C)Oc2ccc(NS(=O)(=O)c3cccs3)cc2C1=O"
  tgt: "HepG2"
  label: "false (0)"

q: Entry `Cc1ccc(S(=O)(=O)N(C)C[C@@H]2Oc3ccc(NC(=O)Nc4cccc5ccccc45)cc3CC(=O)N([C@@H](C)CO)C[C@H]2C)cc1` : call = ?
a: false (0)

q: Entry `CC(C)NC(=O)Nc1ccc2c(c1)CC(=O)N([C@@H](C)CO)C[C@H](C)[C@H](CN(C)S(=O)(=O)c1ccc(F)cc1)O2` : call = ?
a: false (0)

====

# Test system: HepG2
# experimental_protocol: cytotoxicity call (relative viability < 0.9)
# test_context: 10 µM
Among all 39,000 compounds or so, about 3,300 (8.5%) were called active. Only a selection was taken, and actives are over-represented in it overall.
API: response.call in active, inactive

Worked examples follow.
- structure_smiles_string: "C[C@H](CO)N1C[C@H](C)[C@H](CN(C)S(=O)(=O)c2ccc(Cl)cc2)Oc2c(NC(=O)c3ccc(-c4nccs4)cc3)cccc2C1=O"
  tgt: "HepG2"
  label: "active"
- structure_smiles_string: "CO[C@H]1CN(C)C(=O)c2cc(NS(=O)(=O)c3cn(C)cn3)ccc2OC[C@@H](C)N(CCC(F)(F)F)C[C@@H]1C"
  tgt: "HepG2"
  label: "inactive"
- structure_smiles_string: "C[C@H]1CN([C@@H](C)CO)C(=O)Cc2cc(NC(=O)C3CCCCC3)ccc2O[C@H]1CN(C)C(=O)Nc1cccc2ccccc12"
  tgt: "HepG2"
  label: "inactive"

q: Entry `COc1ccc(NC(=O)Nc2ccc3c(c2)C(=O)N([C@@H](C)CO)C[C@H](C)[C@H](CN(C)Cc2ccc(C(=O)O)cc2)OCCCC[C@H](C)O3)cc1` : call = ?
a: inactive

q: Entry `C[C@H]1CC[C@@H]2C(C(=O)O[C@H]3[C@H]4O[C@@]4(C)[C@H]4[C@@H](O[C@H]5O[C@@H](CO)[C@@H](O)[C@@H](O)[C@@H]5O)OC=C[C@@]34O)=CO[C@H](O[C@H]3O[C@@H](CO)[C@@H](O)[C@@H](O)[C@@H]3O)[C@@H]21` : call = ?
a: inactive

q: Entry `COc1ccc(NC(=O)Nc2ccc3c(c2)C(=O)N([C@H](C)CO)C[C@H](C)[C@H](CN(C)C(=O)Nc2cccc4ccccc24)O3)cc1` : call = ?
a: inactive

q: Entry `Cc1noc(C)c1NC(=O)Nc1ccc2c(c1)CC(=O)N([C@@H](C)CO)C[C@@H](C)[C@H](CN(C)C(=O)Nc1cccc3ccccc13)O2` : call = ?
a: active

q: Entry `C[C@@H]1CN([C@H](C)CO)C(=O)c2cccc(NC(=O)c3cnccn3)c2O[C@H]1CN(C)Cc1ccccc1` : call = ?
a: active

q: Entry `C[C@H](CO)N1C[C@H](C)[C@@H](CN(C)Cc2ccc(C(=O)Nc3ccccc3N)cc2)Oc2c(NC(=O)c3ccc(-c4nccs4)cc3)cccc2C1=O` : call = ?
a: inactive

q: Entry `C[C@H]1CN([C@@H](C)CO)C(=O)Cc2cc(NC(=O)NC3CCCCC3)ccc2O[C@@H]1CN(C)C(=O)Nc1cccc2ccccc12` : call = ?
a: inactive

q: Entry `Cc1noc(C)c1NC(=O)N(C)C[C@@H]1Oc2ccc(NC(=O)c3ccncc3)cc2CC(=O)N([C@H](C)CO)C[C@@H]1C` : call = ?
a: inactive
